- procedure text: Solubility by gravimetric method in 14 solvents
- Format: physicochemical
- study conditions: acetone, 23 °C, organic solvent or mixture, thermodynamic from solid
result type: solubility at 2 days

// solubility at 2 days lookup, key: CCNn1c(C)c(C(=O)N[C@H](c2ccccc2)C2CC2)c2cccc(F)c2c1=O
> 67 mg/mL

* * *

- procedure text: Solubility by gravimetric method in 14 solvents
- Type: physicochemical
- study conditions: acetone, 50 °C, organic solvent or mixture, thermodynamic from solid
result type: solubility at 2 days

// solubility at 2 days lookup, key: CCNn1c(C)c(C(=O)N[C@H](c2ccccc2)C2CC2)c2cccc(F)c2c1=O [SJB-01]
> 67 mg/mL
